System: SR leukemia
Experiment: NCI tumour cell line growth inhibition, 48 h
Documented TGI across a set of compounds
Could you give me the number in µM? Just the number is fine.

Consider the reported TGI for these compounds:
* COc1cc(/C=C\c2cc(OC)c(OC)c(OC)c2)cc(N/C=C\C(=O)c2ccc(OC(F)(F)F)cc2)c1OC | 41.1
* O=Nc1ccc(O)c(=O)cc1 | 9.19
* CN(C)CCCc1cccc2[nH]c3c(c12)CN(C)CC3 | 74.3
* CC(=O)O[C@H]1C(=O)[C@@]2(C)C(C(OC(=O)c3ccccc3)[C@]3(O)C[C@H](OC(=O)C(OC(=O)CCCC(=O)NCCCN(C)C)C(NC(=O)c4ccccc4)c4ccccc4)C(C)=C1C3(C)C)C1(OC(C)=O)COC1C[C@@H]2O (some centres undefined) | 58.2

In the following, a different compound is considered.
Lookup: What measured TGI goes with "Cc1nc([P+](c2ccccc2)(c2ccccc2)c2ccccc2)c(Sc2sc(-c3ccccc3)nc2[P+](c2ccccc2)(c2ccccc2)c2ccccc2)o1" ?
Found: 17.2

---

Test system: HL-60(TB) leukemia
Experiment: NCI tumour cell line growth inhibition, 48 h; in the data active means GI50 below about 0.43 µM; inactive means the rest
One label from this list, please: True = active, False = inactive

Worked set:
* Cc1nc([P+](c2ccccc2)(c2ccccc2)c2ccccc2)c(Sc2sc(-c3ccccc3)nc2[P+](c2ccccc2)(c2ccccc2)c2ccccc2)o1 | False
* Cc1cc(O)c(=O)cc2c1C[C@H]1CC(C)(C)/C=C/C[C@]3(C)Oc4cc(=O)c(O)cc(C)c4C[C@H]3C[C@H](O)[C@@]1(C)O2 | True
* COc1ccc(C2CC(c3cccc(Nc4ccnc5cc(Cl)ccc45)c3)=NN2C=O)cc1 (centres undefined) | True

Field: next molecule
Lookup: Field: outcome | Entry: "CCOC(=O)/C(=C/N1CCN(C(=O)c2ccco2)C1=S)C(=O)c1ccccc1"
Found: False

---

System: OVCAR-4 ovarian
Experiment: NCI tumour cell line growth inhibition, 48 h
Observed Property: TGI

- OCc1cn(C(c2ccccc2)(c2ccccc2)c2ccccc2)cn1: > 100 µM
- c1ccc2sc(SCCSc3nc4ccccc4s3)nc2c1: > 100 µM
- Cc1nc(-n2nc(-c3ccccc3)cc2-c2ccccc2)sc1C(=O)/C=C/c1ccc(/C=C/C(=O)c2sc(-n3nc(-c4ccccc4)cc3-c3ccccc3)nc2C)cc1: > 100 µM
- O=C1CSCc2sccc21: > 100 µM

Lookup: What measured TGI goes with O=C(c1ccccc1)c1c(CC(O)c2ccccn2)n(C(=O)c2ccccc2)c2ccccc12 (centres undefined) ?
Found: > 100 µM

Lookup: What measured TGI goes with "COc1ccc2nc3c(C(=O)NCCN(C)C)cccc3cc2c1" ?
Found: 8.49 µM

Lookup: What measured TGI goes with "CN(C)c1ccc(C=Nc2ccc(Oc3ccc(Cl)cc3)c(Cl)c2)cc1" ?
Found: 66.4 µM

Lookup: What measured TGI goes with "Cc1cc(NCCCCCCCCNc2cc(C)nc3cc(N)ccc23)c2ccc(N)cc2n1" ?
Found: > 100 µM

Lookup: What measured TGI goes with "O=c1c2c(=NCCN3CCCC3)cc3c(=O)n(CCCN4CCOCC4)c(=O)c4c(-c5ccc(CN6CCCC6)cc5)cc(c(O)n1CCCN1CCOCC1)c2c4-3" ?
Found: 0.23 µM

---

Documented TGI across a set of compounds
System: HOP-18 NSCLC
Experiment: NCI tumour cell line growth inhibition, 48 h

Lookup: What measured TGI goes with "CCN(CC)c1cccc2c1/C(=N/O)CCCC2" ?
Found: > 100 µM

Lookup: What measured TGI goes with "O=C(/C=C/c1cc(Cl)cc(Cl)c1O)c1cccc(O)c1" ?
Found: > 100 µM

Lookup: What measured TGI goes with Cc1cn(C2CC(O)C(COC(=O)c3ccccc3)O2)c(=O)[nH]c1=O (configuration not stated) ?
Found: > 100 µM

Lookup: What measured TGI goes with "CCN(CC)C(=O)Cc1c(C(=O)N(CC)CC)c(=O)nc2sccn12" ?
Found: > 100 µM

Lookup: What measured TGI goes with O=C1NC(Cc2ccc(O)cc2)C(=O)N2CCCC12 (configuration not stated) ?
Found: > 100 µM

Lookup: What measured TGI goes with "Cn1c2c(c3ccccc31)CCN(CCCCN1CCCCC1)C2=O" ?
Found: > 100 µM

---

Test system: CCRF-CEM leukemia
Experiment: NCI tumour cell line growth inhibition, 48 h
Documented TGI across a set of compounds

* CN(C)C=Nc1ccn(CCO)c(=O)n1 | > 100 µM
* CCC(C)[C@H]1O[C@]2(CC[C@@H]1C)C[C@@H]1C[C@@H](C/C=C(\C)[C@@H](OC3C[C@H](OC)C(O[C@H]4C[C@H](OC)[C@@H](O)[C@H](C)O4)[C@H](C)O3)[C@@H](C)/C=C/C=C3\CO[C@@H]4[C@H](O)C(C)=C[C@@H](C(=O)O1)[C@]34O)O2 (some centres undefined) | 21.2 µM
* Cc1cccc(N(C)C(=O)[C@@H]2[C@H](O)CCN2c2nc(C)cc(C(F)(F)F)c2C#N)c1 | > 100 µM
* COCC1CCCN1c1ccc(C=N/C(C#N)=C(\N)C#N)cc1 (centres undefined) | > 100 µM

Lookup: What measured TGI goes with N=C1OC(CN2CCN(c3ccccc3)CC2)CN1C(=S)Nc1ccccc1 (centres undefined) ?
Found: > 100 µM

Lookup: What measured TGI goes with "CC(C)OC(=O)c1ccc(CCC2=CC(=O)C=CC2=O)cc1" ?
Found: 10.9 µM

---

Documented TGI across a set of molecules
Test system: M14 melanoma
Experiment: NCI tumour cell line growth inhibition, 48 h
Could you give me the number in µM? Just the number is fine.

- O=S(=O)(NCCCNc1nccc(-c2c(-c3ccc(O)cc3)nc3sccn23)n1)c1ccc(F)cc1: 2.8

Lookup: What measured TGI goes with "C#C[C@]1(O)CC[C@H]2[C@@H]3CCC4=C/C(=N/OCCN(C)C)CC[C@]4(C)[C@H]3CC[C@@]21C" ?
Found: 35.2

Lookup: What measured TGI goes with "CCN(CCCN(C)C)Cc1cc(I)cc(C)c1O" ?
Found: 31

---

System: OVCAR-4 ovarian
Experiment: NCI tumour cell line growth inhibition, 48 h
Where a SMILES comes first, the peptide text is derived from it. [ ]: non-standard residue; d: D form. The star is where a group is joined. ξ: configuration not given here. ξF = NC(Cc1ccccc1)C(=O)O; Cbz = O=C(OCc1ccccc1)*; Aib = CC(C)(N)C(=O)O; NHNH2 = NN*
Observed Property: TGI

Consider the reported TGI for these molecules:
- O=c1ccn(CC2(CO)CCC2)c(=O)[nH]1: > 100 µM
- Cc1cc2c(c(C=Nc3ccccc3O)c1)OC1(C=C2)Oc2ccccc2C(=O)N1C (stereo not given): 60 µM

Lookup: What measured TGI goes with CC(C)(NC(=O)OCc1ccccc1)C(=O)NC(Cc1ccccc1)C(=O)NN (stereo not given) (Cbz-[Aib]-[ξF]-NHNH2) ?
Found: > 100 µM

Lookup: What measured TGI goes with "CCN(CC)c1cccc2c1/C(=N/O)CCCC2" ?
Found: > 100 µM

Lookup: What measured TGI goes with COc1ccc(C2N(c3ccc(F)cc3)C(=O)N3C(c4ccc(OC)cc4)N(c4ccc(F)cc4)C(=O)N23)cc1 (stereo not given) ?
Found: > 100 µM

---

System: NCI-H23 lung
Experiment: NCI tumour cell line growth inhibition, 48 h
Documented TGI across a set of compounds

• COC(=O)C(Cc1cc(OC)c(OC)c(OC)c1)C(=O)OC = > 320 µM
• O=c1[nH]c(Cc2ccccc2)nc2c1sc1nc3ccccc3n12 = > 100 µM
• COc1ccc(C(c2cc(OC)c(OC)c(OC)c2)n2ccnc2)cc1O (stereo not drawn) = > 100 µM

Lookup: What measured TGI goes with "CC(C)c1[nH]nc(C(N)=O)c1N=NN(C)C" ?
Found: > 100 µM

Lookup: What measured TGI goes with "O=c1cc(N=Nc2ccc(Br)cc2)[nH]c(=S)[nH]1" ?
Found: > 100 µM

Lookup: What measured TGI goes with "COc1ccc(/C=C(/C#N)C(N)=O)c(OC)c1" ?
Found: > 100 µM

Lookup: What measured TGI goes with "CCN(CC)c1cccc2c1/C(=N/O)CCCC2" ?
Found: > 100 µM

Lookup: What measured TGI goes with "C#C[C@]1(O)CC[C@H]2[C@@H]3CCC4=C/C(=N/OCCN(C)C)CC[C@]4(C)[C@H]3CC[C@@]21C" ?
Found: > 100 µM

Lookup: What measured TGI goes with "COC(=O)/C(C#N)=C(\Nc1ccccc1)N1CCOCC1" ?
Found: > 100 µM

Lookup: What measured TGI goes with CN1C(=O)CCC1(O)C1C=CC=CC1 (stereo not drawn) ?
Found: > 100 µM

Lookup: What measured TGI goes with "Cc1ccccc1N=Nc1c(O)c(S(=O)(=O)O)cc2cc(S(=O)(=O)O)ccc12" ?
Found: > 100 µM

Lookup: What measured TGI goes with "COc1cc(NS(C)(=O)=O)ccc1Nc1cc[nH]c2ccc3nccc3c12" ?
Found: 29.8 µM

Lookup: What measured TGI goes with CCC(C)[C@H]1O[C@]2(CC[C@@H]1C)C[C@@H]1C[C@@H](C/C=C(\C)[C@@H](OC3C[C@H](OC)C(O[C@H]4C[C@H](OC)[C@@H](O)[C@H](C)O4)[C@H](C)O3)[C@@H](C)/C=C/C=C3\CO[C@@H]4[C@H](O)C(C)=C[C@@H](C(=O)O1)[C@]34O)O2 (stereo partly drawn) ?
Found: 13.7 µM
